molecular target: Sterol 14-alpha demethylase (Trypanosoma cruzi (strain CL Brener)); experiment: TcCYP51 inhibitors, dose response, mechanism study for T. cruzi antiparasitic project, biochemical, recombinant enzyme (AID 1159558);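 note: enzyme in bacterial membranes with Anopheles gambiae CYP reductase and cytochrome b5 partners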; details: recombinant T. cruzi CYP51, BOMCC fluorescence
Activity calls are given as the source filed them.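 Rule for the calls: active = IC50 against T. cruzi CYP51 below a set limit; inactive = the rest.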
Answer with one of the outcomes active, inactive

Compound: CCOc1cnn(C)c(=O)c1Nc1ccc(C(=O)NCc2ccc(F)cc2)cc1
Assigned label: active
--
Compound: Cc1cc(=O)n2nc(Oc3ccc(C#N)cc3Cl)sc2n1
Assigned label: inactive

Q) Short answer needed: outcome of this test for "Cc1nc2c(-c3cccs3)c(C)nn2c(NCCO)c1C" ?
A) inactive

* * *

Listed here are compounds together with their documented IC50.
molecular target: Sterol 14-alpha demethylase (Trypanosoma cruzi (strain CL Brener)) (UniProt Q7Z1V1); experiment: TcCYP51 inhibitors, dose response, mechanism study for T. cruzi antiparasitic project, biochemical, recombinant enzyme (AID 1159558); settings: recombinant T. cruzi CYP51, BOMCC fluorescence
Sequence (Q7Z1V1 whole entry, looked up): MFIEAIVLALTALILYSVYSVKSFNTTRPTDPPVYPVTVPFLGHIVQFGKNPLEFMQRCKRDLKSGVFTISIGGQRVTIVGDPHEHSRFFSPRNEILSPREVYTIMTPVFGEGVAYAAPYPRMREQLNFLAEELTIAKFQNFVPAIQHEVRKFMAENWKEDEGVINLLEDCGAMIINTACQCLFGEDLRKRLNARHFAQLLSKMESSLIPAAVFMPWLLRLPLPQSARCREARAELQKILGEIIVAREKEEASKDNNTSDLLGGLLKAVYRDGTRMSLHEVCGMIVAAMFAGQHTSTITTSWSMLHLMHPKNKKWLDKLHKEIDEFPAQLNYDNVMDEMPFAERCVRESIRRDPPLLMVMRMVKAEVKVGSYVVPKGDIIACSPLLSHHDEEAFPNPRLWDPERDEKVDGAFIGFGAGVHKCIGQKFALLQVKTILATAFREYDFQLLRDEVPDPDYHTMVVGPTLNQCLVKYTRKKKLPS
Active and inactive are the calls of the source.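 Rule for the calls: active = IC50 against T. cruzi CYP51 below a set limit; inactive = the rest.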

Smiles code: O=S(=O)(c1ccccc1C(F)(F)F)N1CCN(Cc2ccc(-n3ccnc3)cc2)CC1
IC50: 0.1 µM
//
Smiles code: O=[N+]([O-])c1cccc(Nc2cncc(-c3ccccc3CO)c2)c1
IC50: 3.2 µM
//
Smiles code: Cc1cc(C)nc(N2CCC(N(Cc3cccnc3)C(=O)c3cccc(C#N)c3)CC2)n1
IC50: 0.13 µM
//
Smiles code: Nc1nc(-c2ccccc2)cc(-c2nc3ncccc3[nH]2)n1
IC50: > 100 µM (inactive)

IC50 recorded for this compound, "CN(C)S(=O)(=O)c1cccc(CSc2nnc(-c3ccc4c(c3)OCO4)o2)c1" , is 13 µM

* * *

target: Sterol 14-alpha demethylase (Trypanosoma cruzi (strain CL Brener)); test: TcCYP51 inhibitors, dose response, mechanism study for T. cruzi antiparasitic project, biochemical, recombinant enzyme (AID 1159558); settings: recombinant T. cruzi CYP51, BOMCC fluorescence
Active and inactive are the calls of the source.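 The calls were made as follows: active = IC50 against T. cruzi CYP51 below a set limit; inactive = the rest.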
Answer with one of the outcomes active, inactive

# count of solved cases: 5
Compound: C[C@@H](Oc1cc(-n2cnc3ccc(C(O)CO)cc32)sc1C(N)=O)c1ccccc1C(F)(F)F (some centres not stated)
Assigned label: active

Compound: O=C1CSC(c2cccnc2)N1c1ccc(Cl)cc1Cl (configuration not stated)
Assigned label: active

Compound: CS(=O)(=O)NC1CCC(Oc2cc3cnccc3cc2-c2ccsc2)CC1 (configuration not stated)
Assigned label: active

Compound: COc1ccc2nc(N(Cc3cccnc3)C(=O)C3CCC3)sc2c1
Assigned label: active

Compound: COc1ccc(-c2csc(NC(=O)c3ccc([N+](=O)[O-])s3)n2)cc1
Assigned label: inactive

Q) Short answer needed: outcome of this test for "N#Cc1ccc(C(=O)Nc2cccc(-c3cccc(CN4CCC(O)CC4)c3)c2)cc1" ?
A) active

Q) Short answer needed: outcome of this test for "COc1ccccc1C(=O)Nc1nnc(-c2ccc3c(c2)OCO3)s1" ?
A) inactive

Q) Short answer needed: outcome of this test for COc1cccc2sc(CN(C)C(=O)C3CNCCN3c3ccc(F)cc3)c(C)c12 (configuration not stated) ?
A) active

Q) Short answer needed: outcome of this test for "CC(C)c1nn(-c2nc(N)nc(-c3ccccn3)n2)c(N)c1C1CCCCC1" ?
A) active

Q) Short answer needed: outcome of this test for "CN(Cc1nc2ccccc2s1)C(=O)C=Cc1cc2ccccc2o1" ?
A) active

* * *

biological target: Sterol 14-alpha demethylase (Trypanosoma cruzi (strain CL Brener)) (UniProt Q7Z1V1); experiment: TcCYP51 inhibitors, dose response, mechanism study for T. cruzi antiparasitic project, biochemical, recombinant enzyme (AID 1159558); conditions: recombinant T. cruzi CYP51, BOMCC fluorescence
Activity calls are given as the source filed them.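 Rule for the calls: active = IC50 against T. cruzi CYP51 below a set limit; inactive = the rest.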
Answer with one of the outcomes true for active, false for inactive

# count of solved cases: 5
Smiles code: Cc1ccc2onc(Nc3ccnc(Nc4cccc(S(C)(=O)=O)c4)n3)c2c1
Assigned label: true
//
Smiles code: COCc1cc(Nc2ccc(Cl)cc2)nc(-c2ccccn2)n1
Assigned label: false
//
Smiles code: NS(=O)(=O)c1ccc(Nc2ncc3cccc(OC4CCNCC4)c3n2)cc1
Assigned label: false
//
Smiles code: Cc1ccc2nc(N(Cc3cccnc3)C(=O)CCc3ccccc3)sc2c1
Assigned label: true
//
Smiles code: CC(=O)NC1(c2ccccc2)CCN(CC(=O)Nc2ccccc2-c2ccccc2)CC1
Assigned label: true

Q) Short answer needed: outcome of this test for "Cc1cc2nc(CN(C)Cc3ncccc3C)[nH]c2cc1C" ?
A) true

Q) Short answer needed: outcome of this test for "CCNc1cc(-c2ccccn2)nc(Nc2ccc(OC)cc2)n1" ?
A) true

Q) Short answer needed: outcome of this test for "Cc1cc(C)c(C#N)c(SCC(=O)c2ccc3c(c2)OCO3)n1" ?
A) false

Q) Short answer needed: outcome of this test for "CCCN(Cc1ccc(OC)c(OC)c1)Cc1cc(=O)c2c(C)cc(C)cc2[nH]1" ?
A) false

Q) Short answer needed: outcome of this test for "Cc1cc(Nc2ccc(C#N)c(Cl)c2C)n[nH]1" ?
A) true

Q) Short answer needed: outcome of this test for "O=C(NCc1ccc(-n2cccc2)cc1)c1nc(Cn2ccc([N+](=O)[O-])n2)no1" ?
A) false

* * *

target: Sterol 14-alpha demethylase (Trypanosoma cruzi (strain CL Brener)); test: TcCYP51 inhibitors, dose response, mechanism study for T. cruzi antiparasitic project, biochemical, recombinant enzyme (AID 1159558); conditions: recombinant T. cruzi CYP51, BOMCC fluorescence
Active and inactive are the calls of the source.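 The calls were made as follows: active = IC50 against T. cruzi CYP51 below a set limit; inactive = the rest.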
Answer with one of the outcomes active, inactive

Compound: c1ccc(-c2nc(NC3CCCC3)c3ccccc3n2)nc1
Assigned label: inactive

Compound: CNC(=O)C1Cc2ccccc2N1C(=O)Cc1ccc(F)cc1 (stereo not drawn)
Assigned label: inactive

Compound: Cc1[nH]n2c(=O)c3c(nc2c1-c1ccc(Cl)cc1)CCCC3
Assigned label: inactive

Compound: CCn1c(NC(=O)Cc2ccc(F)cc2)nc2ccccc21
Assigned label: active

Compound: O=c1[nH]cnc2c([C@@H]3O[C@H](CO)[C@@H](O)[C@H]3O)[nH]nc12
Assigned label: inactive

Compound: Fc1ccc(OC2CC(NCc3cccc4cn[nH]c34)C2)cc1C(F)(F)F (stereo not drawn)
Assigned label: active

Compound: CC(C)(C)CC(=O)NCc1noc(COc2ccccc2)n1
Assigned label: active

Compound: CC(Cn1ccnc1)NC(=O)COc1ccc(Cl)c(Cl)c1 (stereo not drawn)
Assigned label: active

Compound: CC(=O)Nc1ccc(Nc2nccc(-c3cnn4ncccc34)n2)cc1C(F)(F)F
Assigned label: active

Compound: CCCCCNC(=O)c1c[nH]c2ccc(S(=O)(=O)N(C)c3ccc(OCC)cc3)cc2c1=O
Assigned label: active

Field: next compound
Q) Short answer needed: outcome of this test for NC(=O)c1ncccc1Nc1nc(NC2CCC(O)CC2)ncc1Br (stereo not drawn) ?
A) inactive

* * *

Listed here are molecules together with their documented IC50.
target: Sterol 14-alpha demethylase (Trypanosoma cruzi (strain CL Brener)) (UniProt Q7Z1V1); assay: TcCYP51 inhibitors, dose response, mechanism study for T. cruzi antiparasitic project, biochemical, recombinant enzyme (AID 1159558);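 note: enzyme in bacterial membranes with Anopheles gambiae CYP reductase and cytochrome b5 partners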; conditions: recombinant T. cruzi CYP51, BOMCC fluorescence
The source made the active and inactive calls.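 How the source made its calls: active means IC50 against T. cruzi CYP51 below a set limit; inactive means the rest.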

Smiles code: CCc1ccc2nc(NC(=O)c3cc(N4CCOCC4)ccn3)sc2c1
IC50: > 100 µM (inactive)

IC50 recorded for this molecule, "CC(C)Nc1nc(Cl)nc2ccccc12" , is > 100 µM (inactive)

IC50 recorded for this molecule, "Cc1[nH]n2c(=O)c3c(nc2c1-c1ccc(F)cc1)CCCC3" , is > 100 µM (inactive)

IC50 recorded for this molecule, "CCCCn1nnnc1CSc1nc(C)cc(C)c1C#N" , is 50 µM

* * *

target: Sterol 14-alpha demethylase (Trypanosoma cruzi (strain CL Brener)); experiment: TcCYP51 inhibitors, dose response, mechanism study for T. cruzi antiparasitic project, biochemical, recombinant enzyme (AID 1159558);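 note: enzyme in bacterial membranes with Anopheles gambiae CYP reductase and cytochrome b5 partners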; conditions: recombinant T. cruzi CYP51, BOMCC fluorescence
Calls of active or inactive are those of the source.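 The calls were made as follows: active = IC50 against T. cruzi CYP51 below a set limit; inactive = the rest.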
Answer with one of the outcomes active, inactive

# count of solved cases: 5
Compound: COc1ccc(-c2cnc(NC(=O)c3ccc(F)cc3)n2C)cc1
Assigned label: active
--
Compound: O=c1[nH]c(C=Cc2cccc(OCCOc3ccccc3)c2)nc(O)c1[N+](=O)[O-]
Assigned label: inactive
--
Compound: Cc1ccc(NC(C)C(=O)Nc2ccc(C#N)cc2)cc1S(=O)(=O)N1CCCCC1 (stereo unspecified)
Assigned label: active
--
Compound: O=C(Nc1ccc(Br)c(Cl)c1)Nc1ccc2c(c1)OCO2
Assigned label: inactive
--
Compound: CN(CCOc1ccc(Cl)cc1)Cc1nc(N)nc(N(C)C)n1
Assigned label: active

Field: next compound
Q) Short answer needed: outcome of this test for "COc1ccccc1CNc1cc(C2CC2)nc(-c2nccn2C)n1" ?
A) active

* * *

target: Sterol 14-alpha demethylase (Trypanosoma cruzi (strain CL Brener)); assay: TcCYP51 inhibitors, dose response, mechanism study for T. cruzi antiparasitic project, biochemical, recombinant enzyme (AID 1159558);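 note: enzyme in bacterial membranes with Anopheles gambiae CYP reductase and cytochrome b5 partners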; details: recombinant T. cruzi CYP51, BOMCC fluorescence
Activity calls are given as the source filed them.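 The calls were made as follows: active = IC50 against T. cruzi CYP51 below a set limit; inactive = the rest.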
Measure name: IC50

Before answering, review these 3 worked examples.
Molecule: COc1ccc(C2=NCC(CSc3nnc(-c4ccc5c(c4)OCO5)o3)S2)cc1 (stereo unspecified)
Target: Sterol 14-alpha demethylase (Trypanosoma cruzi (strain CL Brener))
IC50: 10 µM
--
Molecule: N#Cc1ccc(Br)cc1[N+](=O)[O-]
Target: Sterol 14-alpha demethylase (Trypanosoma cruzi (strain CL Brener))
IC50: 50 µM
--
Molecule: CN(C(=O)Nc1ccc2c(c1)CCN(C1CCC1)CC2)c1ccc(C#N)cc1
Target: Sterol 14-alpha demethylase (Trypanosoma cruzi (strain CL Brener))
IC50: > 100 µM (inactive)

IC50 recorded for this molecule, O=C(Nc1cccc(Cl)c1)N1CCCCC1c1cccnc1 (stereo unspecified) , is 0.02 µM

IC50 recorded for this molecule, COc1ccc(CN2C(=O)C(O)(CC(=O)c3ccncc3)c3cc(Br)ccc32)cc1OC (stereo unspecified) , is 0.5 µM

IC50 recorded for this molecule, "CCn1c(-c2nonc2N)nc2c([C@@H](C)O)ncc(O[C@H](CN)c3ccccc3)c21" , is 25 µM

IC50 recorded for this molecule, "Cc1cc(Nc2cc(C3CC3)[nH]n2)nc(N2CCCC2)n1" , is > 100 µM (inactive)

IC50 recorded for this molecule, CC(=O)Nc1ccc(-c2noc(CC3CCCN(Cc4cccc(F)c4C)C3)n2)cc1 (stereo unspecified) , is > 100 µM (inactive)

IC50 recorded for this molecule, O=S(=O)(NCC(c1cccnc1)N1CCN(c2ccccc2F)CC1)c1ccc(F)cc1 (stereo unspecified) , is 0.079 µM

IC50 recorded for this molecule, "c1ccc(-c2nc(NCc3ccco3)c3ccccc3n2)nc1" , is > 100 µM (inactive)

IC50 recorded for this molecule, "c1ccc(CNc2cccc3ccncc23)cc1" , is 0.1 µM
